# Tested on: UO-31 renal
# assay procedure: NCI tumour cell line growth inhibition, 48 h
Below, each of the compounds is paired with its reported TGI value.
Entry rule: numbers only, all in µM.

INSERT INTO results (chemical_smiles, numeric_readout) VALUES
  ('Clc1cccc(N/N=C/c2c[nH]c3ccccc23)n1', 14.1);

### Prompt Quick one: TGI of `Nc1n[nH]c2cccc(C#Cc3cccc(NC(=O)Nc4cc(C(F)(F)F)cc(C(F)(F)F)c4)c3)c12` ?
### Response 10.3

### Prompt # iterate: `OC(c1ccccc1)(c1ccccc1)C1CCN(c2ccc3nnc(Cl)n3n2)CC1`
### Response 29.1

Where these numbers come from: PubChem BioAssay (NCI)
